- Test system: RXRa DBDmut IVT, anti-RXR (DBD mutation: RXRa K156A/R161A, NR concentration 90 nM)
- Assay procedure: PBM binding z-score (relative to random genomic background probes); higher = stronger binding; sequences stand for … in GC…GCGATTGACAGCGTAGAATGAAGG

Residue codes	Target of assay	PBM binding z-score
TTACCAAGGTGAAGGTCGTTGATCCCTCTGTAGA	RXRa DBDmut IVT, anti-RXR (DBD mutation: RXRa K156A/R161A, NR concentration 90 nM)	0.0227
TCTAGTTGGTCACGGAGGTCACAGACGACGGGTA	RXRa DBDmut IVT, anti-RXR (DBD mutation: RXRa K156A/R161A, NR concentration 90 nM)	1.02
TCATATAGGTAAACGCTAGGTGAAAGTCCGATCT	RXRa DBDmut IVT, anti-RXR (DBD mutation: RXRa K156A/R161A, NR concentration 90 nM)	1.63
ACTATTAGTTGAGACGAAGGCAACCGATAGGTTG	RXRa DBDmut IVT, anti-RXR (DBD mutation: RXRa K156A/R161A, NR concentration 90 nM)	0.0754
CCGACTGGGCCAGAAAGGTTACCATACCATCCGG	RXRa DBDmut IVT, anti-RXR (DBD mutation: RXRa K156A/R161A, NR concentration 90 nM)	-0.772
TCTTGTAGATCAAAAGGAGGTTAAGAAAGATCGA	RXRa DBDmut IVT, anti-RXR (DBD mutation: RXRa K156A/R161A, NR concentration 90 nM)	0.622

* * *

Reported PBM binding z-score values follow for various sequences
- System: PPARa:RXRa (NR concentration 270 nM, RXRa partner concentration 90 nM)
- Assay procedure: PBM binding z-score (relative to random genomic background probes); higher = stronger binding; sequences stand for … in GC…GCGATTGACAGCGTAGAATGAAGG

Residue codes	PBM binding z-score
TCGAGTAGGTTTGTCGGGGCATTCAGCCAACATA	0.326
GTACCACGGTGAATAGGTCGTTGATGAGTAGGCG	0.664
ATATGTAGGTTAAGGGTCACTCAGGTTGGTTCGC	6.85
AGAACGATGGCACGCTGAGTTGATAGCAGAGTAG	-0.687
GCTAGTTGGTGAGTAAAAGGTCACACACCGGTCG	4.55
TCTCGGAGGACACGGAAGGTCAGAGCTCGACATC	2.04
CCTACTGGGCCAAAGGTCATTGGTTCCAATGCTC	6.49
CCTACTGGGCCACGACAGGTCATTGATTCAGTGA	2.68
CCTACTGGGCTAAAGGTCATTGATTCCAATGCTC	6.09
GCATATAGGTAATATAAGGTGAAAGTCCGATTGT	1.81
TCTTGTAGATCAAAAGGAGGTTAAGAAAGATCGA	1.81
TCATGTAGGTAAAAGGTGAAAGTCGGTGTGGTAA	5.78
GCAGACAGGTGAGACGCAGGTAACTCAGGGTGGC	0.164
TAGCTTAGGTCATGCGGGCCAGTATAGTGTCGGC	3.57
CCTGCTAGGTCAACGGTCAGCTAAAGCAGCTCGC	4
CCTTACCGGTCACTCCAGGTTATAGCATCGGAGT	1.3
TCTGCTAGGTCAGTTGGTCAGCCAACGAGCTGCC	1.52
GCTTGTAGATCATGGTTAAGAAAGACTAAGCTAA	-0.285
CCGACTGGGGCAAGGTTACCCTAACGCACAGCCA	1.88
TCTAGTTGGTCACGGAGGTCATACACGACGGGTA	3.92
GCTGCTAGGTCAACTGATGGTCAGCAAAAGCTCG	3.81
TCTTGTAGACCAATAGAGGTTAAGAAAGTGCGCT	2.14
CCTAGTTGGTCAGGAGGTCACACGCCGGATATGA	4.05
TCTAGTTGGGCACGGAGGTCACACACGACGGGTA	3.52
CGTCCAAGGTCAATGCTAGGTCGGTGAAAGCATT	4.79
CCTCGAAGGACAACAGGAGGTCAGAGCTGCCAGA	2.05
CGTCCAAGGTCAAGGGTCAGTGAAGAGATGACGG	6.46
TCGAGTAGGTTAGTCTGGGCATTCAGCCAACATA	0.169
TCTGCTAGGTCAGTTGGTCCGCTAACGAGCTGCC	0.869
TCGAGTAGGTTAGGGGCCTTCAGAATGGCGTCGA	0.54
GCGACTGGGGCATCAGCAGGTTAGCATAACTTAA	0.705
CCGACTCGGGCAAAGGTTACCATACTCAGTACGA	4.45
CCGACTGGGGCAGAGAGGTTACCATACCATCCGG	1.48
ATCTCTAGGTAAAGATAGTTCAGTGAGTGCAAAT	0.673
CCTTACGGGGCACTCCAGGTTATAGCATCGGAGT	0.679
ACTAGCAGGCCAAGTTTCGGTCACTCAAACAAAG	-0.0764
TCTTGTAGATAAGCAGGTTAAGAAAGCTGGCCAA	0.533
TCTTGTAGATCAATAGAGGTTAAGTAAGTGCGCT	2.03
GCTAGTTGGTCAGTAAAAGGTCCCACACCGGTCG	-0.0763
GCAGACAGGTGAAACGCAGGCAACTCAGGGTGGC	0.513
AGAACGAGGGCACGCTGAGTTGATGGCAGAGTAG	2.22
TCTAGCAGGCCAGAGGGTCACTCACGAGGTACGG	2.2
CATCGGAGGACAGAAGGTCAGAGCTGTCCGCTTT	1.8
CCTCGGAGGGCAACAGGAGGTCAGAGCTGCCAGA	3.02
TCTATTAGTTGATAAGGGCAACCGAAACAGCGGA	0.736
ACTAGCAGGCCAAGTTTGGGTCACTCACACAAAG	1.41
CTACCAAGGTGAACAAGGGCGTTGATTACTATTC	1.39
ACAGACAGGTCAGTGAAGGTAACTCAGCTGGACG	2.47
GCTATTAGTTGACAGGGCAACCGAATGATTCTCG	0.0349
TGAATGAGGTTATAAGATAAGGGAACGTTGCAAA	2.45
GTACCAAGGTGAATAGGTCGTGGATGAGTAGGCG	2.47

* * *

Reported PBM binding z-score values follow for various sequences
- Tested on: PPARg:RXRa IVT, anti-PPARg (NR concentration 270 nM, RXRa partner concentration 90 nM)
- Assay procedure: PBM binding z-score (relative to random genomic background probes); higher = stronger binding; sequences stand for … in GC…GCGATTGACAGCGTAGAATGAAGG

Residue codes	Target of assay	PBM binding z-score
AGTCAAAGTTCACCAGGTAACGTAAGATTCAGCT	PPARg:RXRa IVT, anti-PPARg (NR concentration 270 nM, RXRa partner concentration 90 nM)	4
CCTTACGGGGCAAGGTTATAGCACGGGTGGTACG	PPARg:RXRa IVT, anti-PPARg (NR concentration 270 nM, RXRa partner concentration 90 nM)	0.442
TTACCAAGGTGAGCTGAGATCGTTGATCCAACTC	PPARg:RXRa IVT, anti-PPARg (NR concentration 270 nM, RXRa partner concentration 90 nM)	1.5
TAGCCTAGGTCATGGGCCAGTATCCCACGCGAAC	PPARg:RXRa IVT, anti-PPARg (NR concentration 270 nM, RXRa partner concentration 90 nM)	3.14
TCTCGGAGGACACGAATGTCAGAGCTTTCCAGAG	PPARg:RXRa IVT, anti-PPARg (NR concentration 270 nM, RXRa partner concentration 90 nM)	-0.236
CCAGACAGATGAGAAGGTAACTCAGCCTCGATTA	PPARg:RXRa IVT, anti-PPARg (NR concentration 270 nM, RXRa partner concentration 90 nM)	-0.374

* * *

Reported PBM binding z-score values follow for various sequences
- System: PPARa:RXRa (NR concentration 270 nM, RXRa partner concentration 90 nM)
- Assay procedure: PBM binding z-score (relative to random genomic background probes); higher = stronger binding; sequences stand for … in GC…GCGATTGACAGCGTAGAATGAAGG
Property measured: PBM binding z-score

Residue codes	Target of assay	Value reported
CGAACTAGGTCATCCAGGACAATGAATACATTGA	PPARa:RXRa (NR concentration 270 nM, RXRa partner concentration 90 nM)	4.83
TAGCCTAGGTCATGTGCCAGTATACCACGCGAAC	PPARa:RXRa (NR concentration 270 nM, RXRa partner concentration 90 nM)	3.58
CCGAGTAGATTATGGGGCATTCAGGCAACGGTGA	PPARa:RXRa (NR concentration 270 nM, RXRa partner concentration 90 nM)	0.18
ACTAGTTGGTCAGCTGAGGTCACACAGAATTCGG	PPARa:RXRa (NR concentration 270 nM, RXRa partner concentration 90 nM)	3.8
TAGCATAGGTCATGGGCCAGTATACCACGCGAAC	PPARa:RXRa (NR concentration 270 nM, RXRa partner concentration 90 nM)	5.98
CAAGCTAGGTCACCGGAAGGTCAAAGTCCGCATG	PPARa:RXRa (NR concentration 270 nM, RXRa partner concentration 90 nM)	5.38
AATGCAGGGTCACTAGGCCAGAGTAGGTACGAAT	PPARa:RXRa (NR concentration 270 nM, RXRa partner concentration 90 nM)	5.78
ATATGTAGGTTATCGGGTCATTAAGTTTGCGCAT	PPARa:RXRa (NR concentration 270 nM, RXRa partner concentration 90 nM)	5
ACAGACAGGTGAGTGAAGGTAACTTAGCTGGACG	PPARa:RXRa (NR concentration 270 nM, RXRa partner concentration 90 nM)	-0.0817
TCTAGTTGGTCACGGAGGTCACACACGACGGGTA	PPARa:RXRa (NR concentration 270 nM, RXRa partner concentration 90 nM)	4.01
TTTCGGAGGACACGAAAGGTCAGAGCTCGACATC	PPARa:RXRa (NR concentration 270 nM, RXRa partner concentration 90 nM)	3.77
CCTGCTAGGTCAAGGTCAGCTAATCTACAGTATG	PPARa:RXRa (NR concentration 270 nM, RXRa partner concentration 90 nM)	4.45
